Source of measurements: ChEMBL document CHEMBL3882729

# Assay System: Vascular endothelial growth factor receptor 2 (Homo sapiens)
# Sequence (P35968 whole entry, the tested form may be a part): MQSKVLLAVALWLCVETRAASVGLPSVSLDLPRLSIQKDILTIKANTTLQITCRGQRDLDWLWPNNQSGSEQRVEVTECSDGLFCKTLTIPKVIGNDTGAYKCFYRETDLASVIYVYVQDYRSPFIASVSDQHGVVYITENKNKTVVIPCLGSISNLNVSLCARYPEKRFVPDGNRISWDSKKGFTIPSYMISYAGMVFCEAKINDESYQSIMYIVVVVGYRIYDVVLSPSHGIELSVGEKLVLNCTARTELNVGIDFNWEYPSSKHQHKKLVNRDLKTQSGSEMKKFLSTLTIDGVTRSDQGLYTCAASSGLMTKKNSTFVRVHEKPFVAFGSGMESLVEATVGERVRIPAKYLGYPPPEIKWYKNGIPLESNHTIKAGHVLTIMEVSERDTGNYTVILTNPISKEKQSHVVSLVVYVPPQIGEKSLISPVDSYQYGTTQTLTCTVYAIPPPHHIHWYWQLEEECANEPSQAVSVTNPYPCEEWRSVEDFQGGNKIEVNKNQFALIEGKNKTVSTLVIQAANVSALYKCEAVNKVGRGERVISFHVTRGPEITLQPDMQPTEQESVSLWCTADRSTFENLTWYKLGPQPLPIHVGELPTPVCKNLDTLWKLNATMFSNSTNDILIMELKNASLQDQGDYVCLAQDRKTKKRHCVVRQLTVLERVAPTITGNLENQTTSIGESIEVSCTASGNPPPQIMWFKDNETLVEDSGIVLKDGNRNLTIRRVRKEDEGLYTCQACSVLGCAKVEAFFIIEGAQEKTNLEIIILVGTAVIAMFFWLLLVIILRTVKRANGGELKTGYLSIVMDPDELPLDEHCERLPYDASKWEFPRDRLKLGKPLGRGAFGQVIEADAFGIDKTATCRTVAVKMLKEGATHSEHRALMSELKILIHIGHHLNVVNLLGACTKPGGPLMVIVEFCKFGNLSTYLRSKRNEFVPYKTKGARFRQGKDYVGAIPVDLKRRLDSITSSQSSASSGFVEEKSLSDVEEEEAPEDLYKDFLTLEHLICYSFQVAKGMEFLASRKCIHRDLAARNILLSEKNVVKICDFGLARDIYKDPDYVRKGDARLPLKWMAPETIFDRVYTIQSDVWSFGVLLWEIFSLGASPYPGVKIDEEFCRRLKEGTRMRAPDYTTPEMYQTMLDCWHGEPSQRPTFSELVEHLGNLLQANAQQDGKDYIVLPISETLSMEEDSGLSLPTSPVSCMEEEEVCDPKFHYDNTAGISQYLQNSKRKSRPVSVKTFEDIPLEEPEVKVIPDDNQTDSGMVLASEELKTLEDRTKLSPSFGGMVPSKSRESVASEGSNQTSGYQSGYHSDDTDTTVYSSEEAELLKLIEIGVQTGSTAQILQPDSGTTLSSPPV
# Protocol Notes: Inhibition of recombinant human N-terminal GST-fused KDR (D807 to V1356 residues) expressed in baculovirus infected […] insect Sf9 cells using poly-EY as substrate after 240 mins by luciferase coupled chemiluminescence assay
The reader will find reported IC50 values listed item by item below.

[[record]]
compound = "COc1cc2c(Nc3ccc(N4CCN(C)CC4)c(F)c3)ncnc2cc1O[C@H]1CO[C@H]2[C@@H]1OC[C@@H]2F"
reported_value = "1000 to 20000 nM"


Give recorded IC50. CN1CCOC(COc2cc3ncnc(Nc4ccc(Cl)c(Cl)c4)c3cc2O)C1 (stereo not given)
50 to 1000 nM

Please look at this compound and report its IC50: COc1cc2c(Nc3ccc(Cl)c(Cl)c3)ncnc2cc1OCC1CN(C/C=C/Br)CCO1 (stereo not given)
50 to 1000 nM

# return recorded IC50 for entry COc1cc2c(Nc3ccc(Br)c(Cl)c3)ncnc2cc1OC1CCN(C)C1 (stereo not given)
50 to 1000 nM

Given the compound COc1cc2c(Nc3ccc(Cl)c(Cl)c3)ncnc2cc1OCC1CN(/C(=N/C#N)N2CCCC2)CCO1 (stereo not given) , write its reported IC50.
50 to 1000 nM

Identify IC50 associated with the compound COc1cc2c(Nc3cc(Cl)c(Cl)cc3F)ncnc2cc1OC[C@H]1CN2CCOC[C@H]2CO1
50 to 1000 nM

Tell me measured IC50 for CCCCCCN1CCOC(COc2cc3ncnc(Nc4ccc(Cl)c(Cl)c4)c3cc2OC)C1 (stereo not given) please.
50 to 1000 nM

Please report the measured IC50 for COc1cc2c(Nc3ccc(Cl)c(Cl)c3)ncnc2cc1OCC1CN(CC2CCCCC2)CCCO1 (stereo not given)
< 50 nM

Dear colleague, please send me the reported IC50 for COc1cc2c(Nc3ccc(Cl)c(Cl)c3F)ncnc2cc1OC[C@@H]1CN2CCC[C@@H]2C(=O)N1 when you can.
< 50 nM

Report measured IC50; entry is COc1cc2c(Nc3ccc(Br)cc3Br)ncnc2cc1OCC1CN(C)CCO1 (stereo not given)
50 to 1000 nM

Indicate its recorded IC50; the compound in question is CC[C@@H](C)CN1CCOC(COc2cc3ncnc(Nc4ccc(Cl)c(Cl)c4)c3cc2OC)C1 (stereo not given in full)
50 to 1000 nM

Assign IC50 to the following record: COc1cc2c(Nc3ccc(Br)c(Cl)c3)ncnc2cc1O[C@H]1CO[C@H]2[C@@H]1OC[C@@H]2N
1000 to 20000 nM

State, in one line, measured IC50 of C#CCN1CCOC(COc2cc3ncnc(Nc4ccc(Cl)c(Cl)c4)c3cc2OC)C1 (stereo not given)
< 50 nM

Look up IC50 of COc1cc2c(Nc3ccc(Cl)c(Cl)c3)ncnc2cc1OCC1CN(CC2CC2)CCO1 (stereo not given) and report it.
< 50 nM

====

# Assay System: Ephrin type-A receptor 2 (Homo sapiens, UniProt P29317)
# Sequence (P29317 whole entry, the tested form may be a part): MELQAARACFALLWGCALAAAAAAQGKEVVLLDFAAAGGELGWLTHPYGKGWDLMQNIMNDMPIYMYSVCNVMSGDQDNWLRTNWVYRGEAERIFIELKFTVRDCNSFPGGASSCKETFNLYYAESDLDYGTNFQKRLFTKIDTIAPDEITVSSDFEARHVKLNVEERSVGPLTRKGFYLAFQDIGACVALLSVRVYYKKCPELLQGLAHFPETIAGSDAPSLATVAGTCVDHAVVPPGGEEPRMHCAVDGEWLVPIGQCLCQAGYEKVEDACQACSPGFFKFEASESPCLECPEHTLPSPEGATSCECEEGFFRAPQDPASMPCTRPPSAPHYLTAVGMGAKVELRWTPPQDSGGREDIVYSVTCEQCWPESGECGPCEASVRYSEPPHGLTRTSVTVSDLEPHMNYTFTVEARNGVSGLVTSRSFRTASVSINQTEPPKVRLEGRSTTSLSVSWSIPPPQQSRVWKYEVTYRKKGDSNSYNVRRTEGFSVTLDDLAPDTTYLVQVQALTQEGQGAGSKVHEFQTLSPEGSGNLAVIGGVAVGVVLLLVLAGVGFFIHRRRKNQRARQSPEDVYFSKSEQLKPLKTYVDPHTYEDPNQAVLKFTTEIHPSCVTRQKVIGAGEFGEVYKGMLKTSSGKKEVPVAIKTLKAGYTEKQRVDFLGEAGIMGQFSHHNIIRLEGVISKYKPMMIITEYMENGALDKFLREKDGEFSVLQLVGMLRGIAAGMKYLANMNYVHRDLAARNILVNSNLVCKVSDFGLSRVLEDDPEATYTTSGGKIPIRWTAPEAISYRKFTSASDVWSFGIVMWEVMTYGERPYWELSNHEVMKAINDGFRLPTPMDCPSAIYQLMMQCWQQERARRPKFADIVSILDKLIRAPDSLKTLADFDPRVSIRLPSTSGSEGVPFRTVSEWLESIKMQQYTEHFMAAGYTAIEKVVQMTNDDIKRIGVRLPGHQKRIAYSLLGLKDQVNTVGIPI
# Protocol Notes: Inhibition of recombinant human N-terminal His6-tagged EphA2 (N598 to R890 residues) expressed in baculovirus using poly-EY as substrate after 180 mins by luciferase coupled chemiluminescence assay
pIC50: −log10 of the molar value.
pIC50 listing for selected compounds.

Observe how each entry below is paired with its result.
[[record]]
compound = "COc1cc2c(Nc3cc(F)c(Br)c(F)c3)ncnc2cc1OCC1CN(C)CCO1 (stereo not drawn)"
reported_value = "6.00 to 7.30"

[[record]]
compound = "COc1cc2c(Nc3ccc(Cl)c(Cl)c3)ncnc2cc1OCC1CN(/C(=N/C#N)N2CCCC2)CCO1 (stereo not drawn)"
reported_value = "> 7.30"

[[record]]
compound = "COc1cc2c(Nc3ccc(Br)c(Cl)c3)ncnc2cc1O[C@H]1CO[C@H]2[C@@H]1OC[C@@H]2N1CCCC1"
reported_value = "4.70 to 6.00"

[[record]]
compound = "C#CCN1CCOC(COc2cc3ncnc(Nc4ccc(Cl)c(Cl)c4)c3cc2OC)C1 (stereo not drawn)"
reported_value = "> 7.30"

[[record]]
compound = "COc1cc2c(Nc3ccc(Br)c(Cl)c3)ncnc2cc1O[C@H]1CO[C@H]2[C@@H]1OC[C@@H]2O"
reported_value = "4.70 to 6.00"


Report pIC50 on Ephrin type-A receptor 2 (Homo sapiens, UniProt P29317) for this entry: CCCCCCCN1CCOC(COc2cc3ncnc(Nc4ccc(Cl)c(Cl)c4)c3cc2OC)C1 (stereo not drawn)
4.70 to 6.00

Report value only: pIC50, Ephrin type-A receptor 2 (Homo sapiens, UniProt P29317), COc1cc2c(Nc3ccc(C)c(Cl)c3Cl)ncnc2cc1OCC1CN(C)CCO1 (stereo not drawn)
6.00 to 7.30

Report pIC50 under test system Ephrin type-A receptor 2 (Homo sapiens, UniProt P29317) for COc1cc2c(Nc3cc(Cl)c(Br)cc3F)ncnc2cc1OC[C@H]1CN2CCOC[C@H]2CO1 .
6.00 to 7.30

// fetch pIC50 for COc1cc2c(Nc3ccc(Cl)c(Cl)c3F)ncnc2cc1OC[C@@H]1CN2CCC[C@H]2C(=O)N1C ; system: Ephrin type-A receptor 2 (Homo sapiens, UniProt P29317)
6.00 to 7.30

Quote pIC50 with test system Ephrin type-A receptor 2 (Homo sapiens, UniProt P29317) for COc1cc2c(Nc3cc(Cl)c(Br)cc3F)ncnc2cc1OC[C@@H]1CN2CCC[C@H]2CO1
> 7.30

Find pIC50 for COc1cc2c(Nc3ccc(Cl)c(Cl)c3)ncnc2cc1OCC1CN(/C(=N/C#N)N2CCN(C)CC2)CCO1 (stereo not drawn) on Ephrin type-A receptor 2 (Homo sapiens, UniProt P29317) and write it down.
6.00 to 7.30

Report its pIC50 with Ephrin type-A receptor 2 (Homo sapiens, UniProt P29317) as the test system: COc1cc2c(Nc3ccc(Br)c(Cl)c3)ncnc2cc1O[C@@H]1CO[C@H]2[C@@H]1OC[C@@H]2NS(C)(=O)=O
4.70 to 6.00

Give pIC50; test system Ephrin type-A receptor 2 (Homo sapiens, UniProt P29317); compound COc1cc2c(Nc3ccc(Cl)c(Cl)c3)ncnc2cc1OCC1CN(C(=O)c2ccc3c(c2)OCO3)CCO1 (stereo not drawn)
6.00 to 7.30

Lab note: record pIC50 of COc1cc2c(Nc3ccc(Br)c(Cl)c3)ncnc2cc1O[C@H]1CO[C@H]2[C@@H]1OC[C@@H]2S(C)(=O)=O tested on Ephrin type-A receptor 2 (Homo sapiens, UniProt P29317).
4.70 to 6.00

Please respond with reported pIC50 (system Ephrin type-A receptor 2 (Homo sapiens, UniProt P29317)) for COc1cc2c(Nc3ccc(N4CCN(C)CC4)cc3)ncnc2cc1O[C@H]1CO[C@H]2[C@@H]1OC[C@@H]2F .
4.70 to 6.00

Quote Ephrin type-A receptor 2 (Homo sapiens, UniProt P29317) pIC50 for entry CN[C@H]1CO[C@H]2[C@@H]1OC[C@@H]2Oc1cc2ncnc(Nc3ccc(Br)c(Cl)c3)c2cc1OC .
4.70 to 6.00

Provide measured pIC50 on Ephrin type-A receptor 2 (Homo sapiens, UniProt P29317) for COc1cc2c(Nc3ccc(Cl)c(Cl)c3)ncnc2cc1OCC1CN(C2CCOCC2)CCO1 (stereo not drawn) please.
6.00 to 7.30

GET pIC50 where system = Ephrin type-A receptor 2 (Homo sapiens, UniProt P29317) and item = COc1cc2c(Nc3ccc(Cl)c(Cl)c3)ncnc2cc1OCC1CN(S(=O)(=O)Cc2ccccc2)CCO1 (stereo not drawn)
6.00 to 7.30

# assay system Ephrin type-A receptor 2 (Homo sapiens, UniProt P29317): give pIC50 of COc1ccc(-c2nc(COc3cc4ncnc(Nc5ccc(Cl)c(Cl)c5)c4cc3OC)no2)cc1
4.70 to 6.00

Given COc1cc2c(Nc3cc(Cl)c(Cl)cc3F)ncnc2cc1OC[C@@H]1CN2CCOC[C@H]2CO1 , report its pIC50 on Ephrin type-A receptor 2 (Homo sapiens, UniProt P29317).
6.00 to 7.30

Write down the reported pIC50 (system: Ephrin type-A receptor 2 (Homo sapiens, UniProt P29317)) of COc1cc2c(Nc3ccc(Br)c(Cl)c3)ncnc2cc1OC1CCN(C)C1 (stereo not drawn)
4.70 to 6.00

Report pIC50 from Ephrin type-A receptor 2 (Homo sapiens, UniProt P29317) testing of COc1cc2c(Nc3ccc(Br)c(Cl)c3)ncnc2cc1O[C@@H]1CO[C@H]2[C@@H]1OC[C@@H]2OS(C)(=O)=O
4.70 to 6.00

For Ephrin type-A receptor 2 (Homo sapiens, UniProt P29317), give pIC50 of the listed compound: COc1cc2c(Nc3ccc(Cl)c(Cl)c3)ncnc2cc1OCC1CN(C(=O)Cc2ccc(Cl)cc2)CCO1 (stereo not drawn)
4.70 to 6.00

Give the observed pIC50 of COc1cc2c(Nc3ccc(Br)c(Cl)c3)ncnc2cc1O[C@@H]1CCOC1 for Ephrin type-A receptor 2 (Homo sapiens, UniProt P29317).
4.70 to 6.00

Tell me its pIC50 on Ephrin type-A receptor 2 (Homo sapiens, UniProt P29317): COc1cc2c(Nc3ccc(Br)cc3Cl)ncnc2cc1OCC1CN(C)CCO1 (stereo not drawn)
6.00 to 7.30

Consider the compound CCOc1cc2c(Nc3ccc(Cl)c(Cl)c3)ncnc2cc1OCC1CN(C)CCO1 (stereo not drawn) tested on Ephrin type-A receptor 2 (Homo sapiens, UniProt P29317); state its pIC50.
> 7.30

Please look at COc1cc2c(Nc3ccc(Cl)c(Cl)c3)ncnc2cc1OCC1CN(C(=O)c2cccc3ccccc23)CCO1 (stereo not drawn) and tell me its recorded pIC50 on Ephrin type-A receptor 2 (Homo sapiens, UniProt P29317).
4.70 to 6.00

# assay system Ephrin type-A receptor 2 (Homo sapiens, UniProt P29317): give pIC50 of COc1cc2c(Nc3ccc(Br)c(Cl)c3F)ncnc2cc1OC[C@@H]1CN2CCC[C@H]2CO1
> 7.30
